Measured IC50 accompanies every entry in the list below.
- subject of test: Diacylglycerol lipase-alpha (Mus musculus, UniProt Q6WQJ1)
- Sequence (Q6WQJ1 whole entry): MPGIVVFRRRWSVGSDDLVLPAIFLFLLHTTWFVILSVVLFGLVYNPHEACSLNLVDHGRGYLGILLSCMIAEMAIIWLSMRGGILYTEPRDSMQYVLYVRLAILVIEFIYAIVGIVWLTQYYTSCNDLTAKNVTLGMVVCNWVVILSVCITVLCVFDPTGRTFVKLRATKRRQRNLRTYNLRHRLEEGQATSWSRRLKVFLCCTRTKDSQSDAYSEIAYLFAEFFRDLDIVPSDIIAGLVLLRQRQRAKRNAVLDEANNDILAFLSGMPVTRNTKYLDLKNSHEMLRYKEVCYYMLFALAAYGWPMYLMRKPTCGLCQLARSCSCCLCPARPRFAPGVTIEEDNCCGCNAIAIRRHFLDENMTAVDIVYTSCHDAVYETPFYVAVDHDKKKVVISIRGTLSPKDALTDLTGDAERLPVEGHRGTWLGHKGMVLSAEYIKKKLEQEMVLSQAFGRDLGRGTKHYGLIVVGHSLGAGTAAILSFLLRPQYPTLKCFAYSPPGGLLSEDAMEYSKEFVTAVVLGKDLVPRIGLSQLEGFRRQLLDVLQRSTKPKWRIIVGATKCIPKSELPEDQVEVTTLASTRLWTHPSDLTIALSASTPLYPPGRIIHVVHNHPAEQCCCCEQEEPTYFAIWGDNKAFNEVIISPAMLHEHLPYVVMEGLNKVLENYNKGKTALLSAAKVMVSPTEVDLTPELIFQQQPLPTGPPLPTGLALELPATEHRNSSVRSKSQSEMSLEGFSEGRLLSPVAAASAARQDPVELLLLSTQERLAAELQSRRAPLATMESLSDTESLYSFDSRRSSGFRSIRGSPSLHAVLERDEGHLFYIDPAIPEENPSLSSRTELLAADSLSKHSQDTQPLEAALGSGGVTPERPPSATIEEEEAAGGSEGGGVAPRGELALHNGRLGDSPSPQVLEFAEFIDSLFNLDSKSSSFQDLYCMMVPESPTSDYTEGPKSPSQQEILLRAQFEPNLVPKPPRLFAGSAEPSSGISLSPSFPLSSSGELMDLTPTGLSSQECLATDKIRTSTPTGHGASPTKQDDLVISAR
- method description: Inhibition of mouse DAGL-alpha expressed in HEK293T cell membranes pre-incubated for 20 mins before PNP-butyrate substrate addition and measured after 30 mins by surrogate substrate assay
- Type: cell-based
- assay setup: read-out: pIC50 (converted)

Below, 2 molecules whose answers are already recorded.
> print(dat)
                                   molecule                           subject.of.test  assay.value
1  O=C(N1CCCC[C@@H]1Cc1ccccc1)n1cnc(C(O)(c2ccc(F)cc2)c2ccc(F)cc2)c1  Diacylglycerol lipase-alpha (Mus musculus, UniProt Q6WQJ1)   > 31600 nM
2  C#CCO[C@@H]1CC[C@H](Cc2ccccc2)N(C(=O)n2ncc(C(O)(c3ccc(F)cc3)c3ccc(F)cc3)n2)C1  Diacylglycerol lipase-alpha (Mus musculus, UniProt Q6WQJ1)       < 1 nM

Any idea what IC50 was measured for O=C(N1CCCCC1Cc1ccccc1)n1cc(-c2ccc(-c3ccccc3)cc2)nn1 (stereo not drawn) ?
< 1 nM
